# METHOD_NOTES: Metabolic stability in human liver microsomes assessed as compound metabolized at 1 uM after 15 mins
# Format: ADME, microsome
# RUN_CONDITIONS: read-out: Drug metabolism
REPORTED_METRIC: metabolised at 0.25 h, 1 µM (%)

1. CCCC[C@@H](CCO)Nc1nc(N)nc2ccc(OC)cc12 :: 25
2. CCCC[C@@H](CCO)Nc1nc(N)nc2cccc(C)c12 :: 67
3. CCC[C@@H](CCO)Nc1nc(N)nc2cc(F)ccc12 :: 13
4. CCCC[C@@H](CCO)Nc1nc(N)nc2c(F)cccc12 :: 76
5. CCCC[C@@H](CCO)Nc1nc(N)nc2ccc(F)cc12 :: 33
6. CCC[C@@H](CCO)Nc1nc(N)nc2cccc(F)c12 :: 62
7. CCCC[C@@H](CCO)Nc1nc(N)nc2ccccc12 :: 45
8. CCC[C@@H](CCO)Nc1nc(N)nc2cc(OC)ccc12 :: 35
9. CCC[C@@H](CCO)Nc1nc(N)nc2ccc(C)cc12 :: 21
10. CCC[C@@H](CCO)Nc1nc(N)nc2cccc(C)c12 :: 44
11. CCCC[C@@H](CCO)Nc1nc(N)nc2cccc(F)c12 :: 87
